Give GI50 for every item shown.
# Tested on: MDA-MB-231
# protocol: Cytotoxicity against human MDA-MB-231 cells by MTT assay
# Type: functional
Numbered stars: 1 amine (or outer) side, 2 acyl side, 3 side chain; on linkers, the order of the positions; unused ones are H or OH. Square brackets hold non-standard residues; d marks the D form. Peptide text beside a SMILES is read from it. X1 = CC1(C)SC[C@@H](C(=O)[*:2])N1[*:1]
Give your result in nM as a bare value.

What value of GI50 has been recorded for this entry: CC[C@H](C)[C@@H]1NC(=O)[C@@H]2CSC(C)(C)N2C(=O)[C@H]([C@@H](C)O)NC(=O)[C@H](CC(C)C)NC(=O)[C@@H]2CSC(C)(C)N2C(=O)[C@H](Cc2ccccc2)NC(=O)[C@H](Cc2c[nH]c3ccccc23)NC(=O)[C@@H]2CSC(C)(C)N2C1=O (cyclo(F[X1]LT[X1]I[X1]W))
1650

What value of GI50 has been recorded for this entry: CC[C@H](C)[C@@H]1NC(=O)[C@@H]2CSC(C)(C)N2C(=O)[C@H]([C@@H](C)O)NC(=O)[C@H](CC(C)C)NC(=O)[C@@H]2CCCN2C(=O)[C@H](Cc2ccccc2)NC(=O)[C@H](Cc2c[nH]c3ccccc23)NC(=O)[C@@H]2CCCN2C1=O (cyclo(FPLT[X1]IPW))
2700

What value of GI50 has been recorded for this entry: CC[C@H](C)[C@@H]1NC(=O)[C@@H]2CCCN2C(=O)[C@H]([C@@H](C)O)NC(=O)[C@H](CC(C)C)NC(=O)[C@@H]2CCCN2C(=O)[C@H](Cc2ccccc2)NC(=O)[C@H](Cc2c[nH]c3ccccc23)NC(=O)[C@@H]2CCCN2C1=O [STYLISSAMIDE X] (cyclo(FPLTPIPW))
515

What value of GI50 has been recorded for this entry: CC[C@H](C)[C@@H]1NC(=O)[C@@H]2CCCN2C(=O)[C@H]([C@@H](C)O)NC(=O)[C@H](CC(C)C)NC(=O)[C@@H]2CSC(C)(C)N2C(=O)[C@H](Cc2ccccc2)NC(=O)[C@H](Cc2c[nH]c3ccccc23)NC(=O)[C@@H]2CSC(C)(C)N2C1=O (cyclo(F[X1]LTPI[X1]W))
5650

What value of GI50 has been recorded for this entry: CC[C@H](C)[C@@H]1NC(=O)[C@@H]2CSC(C)(C)N2C(=O)[C@H]([C@@H](C)O)NC(=O)[C@H](CC(C)C)NC(=O)[C@@H]2CSC(C)(C)N2C(=O)[C@H](Cc2ccccc2)NC(=O)[C@H](Cc2c[nH]c3ccccc23)NC(=O)[C@@H]2CCCN2C1=O (cyclo(F[X1]LT[X1]IPW))
1720

What value of GI50 has been recorded for this entry: CC[C@H](C)[C@@H]1NC(=O)[C@@H]2CSC(C)(C)N2C(=O)[C@H]([C@@H](C)O)NC(=O)[C@H](CC(C)C)NC(=O)[C@@H]2CCCN2C(=O)[C@H](Cc2ccccc2)NC(=O)[C@H](Cc2c[nH]c3ccccc23)NC(=O)[C@@H]2CSC(C)(C)N2C1=O (cyclo(FPLT[X1]I[X1]W))
2200

What value of GI50 has been recorded for this entry: CC[C@H](C)[C@@H]1NC(=O)[C@@H]2CCCN2C(=O)[C@H]([C@@H](C)O)NC(=O)[C@H](CC(C)C)NC(=O)[C@@H]2CSC(C)(C)N2C(=O)[C@H](Cc2ccccc2)NC(=O)[C@H](Cc2c[nH]c3ccccc23)NC(=O)[C@@H]2CCCN2C1=O (cyclo(F[X1]LTPIPW))
6110

====

Give LC50 for every item shown.
# System: HT-29
# protocol: Cytotoxicity against human HT-29 cells by MTT assay
# Type: functional
Numbered stars: 1 amine (or outer) side, 2 acyl side, 3 side chain; on linkers, the order of the positions; unused ones are H or OH. Square brackets hold non-standard residues; d marks the D form. Peptide text beside a SMILES is read from it. X1 = CC1(C)SC[C@@H](C(=O)[*:2])N1[*:1]

Give HT-29 LC50 for CC[C@H](C)[C@@H]1NC(=O)[C@@H]2CCCN2C(=O)[C@H]([C@@H](C)O)NC(=O)[C@H](CC(C)C)NC(=O)[C@@H]2CSC(C)(C)N2C(=O)[C@H](Cc2ccccc2)NC(=O)[C@H](Cc2c[nH]c3ccccc23)NC(=O)[C@@H]2CCCN2C1=O (cyclo(F[X1]LTPIPW))
> 10 µM

Give HT-29 LC50 for CC[C@H](C)[C@@H]1NC(=O)[C@@H]2CCCN2C(=O)[C@H]([C@@H](C)O)NC(=O)[C@H](CC(C)C)NC(=O)[C@@H]2CCCN2C(=O)[C@H](Cc2ccccc2)NC(=O)[C@H](Cc2c[nH]c3ccccc23)NC(=O)[C@@H]2CCCN2C1=O [STYLISSAMIDE X] (cyclo(FPLTPIPW))
> 10.5 µM

Give HT-29 LC50 for CC[C@H](C)[C@@H]1NC(=O)[C@@H]2CSC(C)(C)N2C(=O)[C@H]([C@@H](C)O)NC(=O)[C@H](CC(C)C)NC(=O)[C@@H]2CCCN2C(=O)[C@H](Cc2ccccc2)NC(=O)[C@H](Cc2c[nH]c3ccccc23)NC(=O)[C@@H]2CCCN2C1=O (cyclo(FPLT[X1]IPW))
4.61 µM

====

# Test system: HT-29
# protocol: Cytotoxicity against human HT-29 cells by MTT assay
# Assay type: functional
Numbered stars: 1 amine (or outer) side, 2 acyl side, 3 side chain; on linkers, the order of the positions; unused ones are H or OH. Square brackets hold non-standard residues; d marks the D form. Peptide text beside a SMILES is read from it. X1 = CC1(C)SC[C@@H](C(=O)[*:2])N1[*:1]
quantity: LC50 (µM)
Give your result in µM as a bare value.

What value of LC50 has been recorded for this entry: CC[C@H](C)[C@@H]1NC(=O)[C@@H]2CSC(C)(C)N2C(=O)[C@H]([C@@H](C)O)NC(=O)[C@H](CC(C)C)NC(=O)[C@@H]2CSC(C)(C)N2C(=O)[C@H](Cc2ccccc2)NC(=O)[C@H](Cc2c[nH]c3ccccc23)NC(=O)[C@@H]2CCCN2C1=O (cyclo(F[X1]LT[X1]IPW))
2.68

====

Give LC50 for every item shown.
# Tested on: HT-29
# protocol: Cytotoxicity against human HT-29 cells by MTT assay
# Type: functional
Numbered stars: 1 amine (or outer) side, 2 acyl side, 3 side chain; on linkers, the order of the positions; unused ones are H or OH. Square brackets hold non-standard residues; d marks the D form. Peptide text beside a SMILES is read from it. X1 = CC1(C)SC[C@@H](C(=O)[*:2])N1[*:1]

What value of LC50 has been recorded for this entry: CC[C@H](C)[C@@H]1NC(=O)[C@@H]2CSC(C)(C)N2C(=O)[C@H]([C@@H](C)O)NC(=O)[C@H](CC(C)C)NC(=O)[C@@H]2CSC(C)(C)N2C(=O)[C@H](Cc2ccccc2)NC(=O)[C@H](Cc2c[nH]c3ccccc23)NC(=O)[C@@H]2CSC(C)(C)N2C1=O (cyclo(F[X1]LT[X1]I[X1]W))
2110 nM

What value of LC50 has been recorded for this entry: CC[C@H](C)[C@@H]1NC(=O)[C@@H]2CCCN2C(=O)[C@H]([C@@H](C)O)NC(=O)[C@H](CC(C)C)NC(=O)[C@@H]2CCCN2C(=O)[C@H](Cc2ccccc2)NC(=O)[C@H](Cc2c[nH]c3ccccc23)NC(=O)[C@@H]2CSC(C)(C)N2C1=O (cyclo(FPLTPI[X1]W))
> 10000 nM

What value of LC50 has been recorded for this entry: CC[C@H](C)[C@@H]1NC(=O)[C@@H]2CSC(C)(C)N2C(=O)[C@H]([C@@H](C)O)NC(=O)[C@H](CC(C)C)NC(=O)[C@@H]2CCCN2C(=O)[C@H](Cc2ccccc2)NC(=O)[C@H](Cc2c[nH]c3ccccc23)NC(=O)[C@@H]2CSC(C)(C)N2C1=O (cyclo(FPLT[X1]I[X1]W))
2390 nM
